- assay_target: hKCNQ2/3 (Homo sapiens, UniProt O43525+O43526)
- Sequence (O43526 whole entry): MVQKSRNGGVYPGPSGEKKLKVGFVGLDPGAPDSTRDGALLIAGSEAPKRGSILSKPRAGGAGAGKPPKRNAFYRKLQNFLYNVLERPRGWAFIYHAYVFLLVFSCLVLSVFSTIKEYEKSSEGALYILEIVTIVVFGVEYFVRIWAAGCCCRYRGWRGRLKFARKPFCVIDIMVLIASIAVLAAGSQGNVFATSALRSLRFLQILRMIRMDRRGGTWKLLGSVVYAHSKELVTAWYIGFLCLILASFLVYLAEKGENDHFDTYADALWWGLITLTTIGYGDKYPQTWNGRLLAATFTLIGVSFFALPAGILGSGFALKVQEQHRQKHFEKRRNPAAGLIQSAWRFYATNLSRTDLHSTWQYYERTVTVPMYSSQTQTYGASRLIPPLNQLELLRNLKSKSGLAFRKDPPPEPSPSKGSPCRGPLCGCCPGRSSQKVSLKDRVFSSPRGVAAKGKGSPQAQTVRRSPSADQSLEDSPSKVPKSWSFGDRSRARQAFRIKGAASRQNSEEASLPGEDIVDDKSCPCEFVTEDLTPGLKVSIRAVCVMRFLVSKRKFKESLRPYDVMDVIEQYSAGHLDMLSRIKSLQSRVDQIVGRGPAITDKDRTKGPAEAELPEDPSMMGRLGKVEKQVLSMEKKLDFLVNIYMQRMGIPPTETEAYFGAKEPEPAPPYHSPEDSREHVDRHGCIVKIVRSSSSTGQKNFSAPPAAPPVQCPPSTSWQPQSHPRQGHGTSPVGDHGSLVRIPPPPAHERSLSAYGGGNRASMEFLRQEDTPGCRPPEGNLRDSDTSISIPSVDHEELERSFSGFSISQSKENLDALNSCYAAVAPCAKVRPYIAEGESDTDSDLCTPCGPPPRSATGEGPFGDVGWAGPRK
- Sequence (O43525 whole entry): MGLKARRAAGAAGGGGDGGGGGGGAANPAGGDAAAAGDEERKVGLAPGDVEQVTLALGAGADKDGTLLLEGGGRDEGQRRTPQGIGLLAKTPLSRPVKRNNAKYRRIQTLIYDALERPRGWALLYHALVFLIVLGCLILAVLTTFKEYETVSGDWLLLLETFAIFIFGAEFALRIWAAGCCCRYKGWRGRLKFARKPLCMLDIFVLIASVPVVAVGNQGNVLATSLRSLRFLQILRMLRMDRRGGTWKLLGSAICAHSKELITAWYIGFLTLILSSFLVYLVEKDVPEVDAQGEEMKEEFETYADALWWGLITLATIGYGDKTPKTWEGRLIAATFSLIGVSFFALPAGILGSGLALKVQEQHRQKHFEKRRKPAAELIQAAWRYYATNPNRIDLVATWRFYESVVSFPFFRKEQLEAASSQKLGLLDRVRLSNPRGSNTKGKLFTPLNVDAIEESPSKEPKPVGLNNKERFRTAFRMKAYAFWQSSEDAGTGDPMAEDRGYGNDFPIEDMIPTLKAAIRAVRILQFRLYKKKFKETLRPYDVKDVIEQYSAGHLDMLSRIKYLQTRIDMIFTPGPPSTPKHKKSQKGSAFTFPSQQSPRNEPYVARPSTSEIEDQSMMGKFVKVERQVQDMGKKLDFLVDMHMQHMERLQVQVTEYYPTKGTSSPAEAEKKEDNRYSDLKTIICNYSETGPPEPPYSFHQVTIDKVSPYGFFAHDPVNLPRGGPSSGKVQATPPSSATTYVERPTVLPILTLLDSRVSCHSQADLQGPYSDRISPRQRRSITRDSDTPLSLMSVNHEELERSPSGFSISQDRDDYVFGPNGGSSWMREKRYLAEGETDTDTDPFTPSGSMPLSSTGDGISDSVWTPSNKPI
- method: Fluorescence assay using a voltage-sensitive dye (fluorimetry)
- Assay type: cell-based
- Design: expressed in transfected cells; host or cells: CHO-K1
- condition_set: CHO-K1 cells expressing KCNQ2/3
- Experimental: Pharmacological Experiments Fluorescence Assay Using a Voltage-Sensitive Dye […] The fluorescence measurements are carried out with a BMG Labtech FLUOstar™ BMG Labtech NOVOstar™ or BMG Labtech POLARstar™ instrument (525 nm excitation, 560 nm emission, bottom-read mode). […] The fluorescence intensity of the dye is then measured for 5 min and the fluorescence value F1 of each well is thus determined at a given, constant time. […]
pEC50: −log10 of the molar value.
parameter: pEC50

# example entries with known answers
>>> reported_measurement("O=C(CCC(=O)N1CCc2ccccc2C1c1ccccc1)NCc1cccc(C(F)(F)F)c1 (stereo not shown) [Example compound 1]")
5.72
>>> reported_measurement("O=C(CCC(=O)N1CCc2ccccc2C1c1cccs1)NCc1cccc(C(F)(F)F)c1 (stereo not shown) [Example compound 3]")
5.98

1: O=C(CCC(=O)N1CCc2ccc(F)cc2C1c1ccccc1)NCc1cccc(C(F)(F)F)c1 (stereo not shown) [Example compound 5]
2: Cc1ccccc1C1c2ccccc2CCN1C(=O)CCC(=O)NCc1cccc(C(F)(F)F)c1 (stereo not shown) [Example compound 67]
For the pair 1 and 2 , which member has the lower pEC50 number? Lab log: write the label of the selected item as the result.
2
(2: 6.67, 1: 7.08)
